The reported measurements were obtained from PubChem BioAssay (NCI).

- Tested on: UACC-257 melanoma
- procedure summary: NCI tumour cell line growth inhibition, 48 h
measured property: TGI (µM)
# value in µM; strip the unit string

// below: answered compounds
INSERT INTO assay_data (given_smiles, meas_value) VALUES
  ('O=S(=O)(O)O', 1990),
  ('O=[N+]([O-])/C=C/c1c(Cl)cccc1Cl', 10.2),
  ('CN1CCN(Cc2c[nH]c3c2C(=O)c2c(c(O)c4ccccc4c2O)C3=O)CC1', 33.1);

Now examine the next entry.
**Q:** Please look up its TGI: "Cc1ccc(/C=C/c2c(C(=O)/C=C/c3ccccc3)c(C)nc3ccccc23)cc1"
**A:** 4.02

----------
- Test system: COLO 205 colon
- procedure summary: NCI tumour cell line growth inhibition, 48 h
measured property: TGI

// below: answered molecules
INSERT INTO assay_data (molecule, meas_value) VALUES
  ('O=C(COc1ccc(OCC(=O)N2C(=O)CC(=O)N(c3ccc(Cl)cc3)C2=S)cc1)N1C(=O)CC(=O)N(c2ccc(Cl)cc2)C1=S', '38.5 µM'),
  ('CCOC(=O)C1CC(C(=O)c2ccccc2)N2c3ccccc3-c3ccccc3C12 (stereo not given)', '> 100 µM'),
  ('COc1ccccc1-n1c(=O)n(C)c(=O)n1C(C)(C)C', '> 100 µM'),
  ('CCCC[C@@H](C)/C=C1\CN2CCC[C@H]2[C@@](C)(OCc2ccccc2)[C@@H]1O', '> 50 µM'),
  ('O=C1CCc2c(sc3[nH]c(=S)n(-c4cc(C(F)(F)F)cc(C(F)(F)F)c4)c(=O)c23)C1', '0.668 µM');

**Q:** Please look up its TGI: [N-]=[N+]=NC(c1cn(C2CC(O)C(CO)O2)c(=O)[nH]c1=O)C(Cl)Br (stereo not given)
**A:** > 100 µM

**Q:** Please look up its TGI: "O=c1cc(-c2ccccn2)[nH]c2cccc(F)c12"
**A:** > 100 µM

**Q:** Please look up its TGI: "O[C@@H]1C=C[C@]23CCN(Cc4cc5c(cc42)OCO5)[C@@H]3C1"
**A:** > 100 µM

**Q:** Please look up its TGI: "COC(=O)c1c2c(c(C)[n+]([O-])c1C)C(=O)C=C(NCc1ccccc1)C2=O"
**A:** 0.776 µM

**Q:** Please look up its TGI: "Cc1ccc(S(=O)(=O)N2C[C@@H]3CC[C@]4(CO[Si](C)(C)C(C)(C)C)N[C@@H](c5ccccc5)[C@H]2[C@H]34)cc1"
**A:** 58.8 µM

**Q:** Please look up its TGI: CC1=CC2C(C(O)CC3(C)C2CC(C)C32OCOC23COCO3)C2(C)C/C(=C/O)C(=O)C=C12 (stereo not given)
**A:** 3.47 µM

**Q:** Please look up its TGI: O=C1C2C(C(=O)N1c1ccccc1)C1c3ccccc3C2C2C(=O)N(c3ccccc3)C(=O)C21 (stereo not given)
**A:** > 100 µM

**Q:** Please look up its TGI: "O=[N+]([O-])/C=C/c1c(Cl)cccc1Cl"
**A:** 1.76 µM

----------
- System: RPMI-8226 leukemia
- procedure summary: NCI tumour cell line growth inhibition, 48 h
# key: entry, value: TGI
# value in µM; strip the unit string

**Q:** Please look up its TGI: "Cc1ccc(S(=O)(=O)N2C[C@@H]3CC[C@]4(CO[Si](C)(C)C(C)(C)C)N[C@@H](c5ccccc5)[C@H]2[C@H]34)cc1"
**A:** 46.8

**Q:** Please look up its TGI: "NNC(=O)Nc1nc2ccc(NN)cc2[nH]1"
**A:** 26.7

**Q:** Please look up its TGI: "O=[N+]([O-])c1cc[n+]([O-])c2ccccc12"
**A:** 0.358

**Q:** Please look up its TGI: "CN(C)c1ccc(Nc2c3ccccc3nc3ccccc23)cc1"
**A:** 3.9
